# SUBJECT_OF_TEST: iNOS (Mus musculus, UniProt P29477)
# Construct: stimulated macrophages that produce iNOS; endogenous in cells; host or cells: primary mouse macrophages (from femur), LPS-stimulated, DAHP-treated
# Sequence (P29477 whole entry): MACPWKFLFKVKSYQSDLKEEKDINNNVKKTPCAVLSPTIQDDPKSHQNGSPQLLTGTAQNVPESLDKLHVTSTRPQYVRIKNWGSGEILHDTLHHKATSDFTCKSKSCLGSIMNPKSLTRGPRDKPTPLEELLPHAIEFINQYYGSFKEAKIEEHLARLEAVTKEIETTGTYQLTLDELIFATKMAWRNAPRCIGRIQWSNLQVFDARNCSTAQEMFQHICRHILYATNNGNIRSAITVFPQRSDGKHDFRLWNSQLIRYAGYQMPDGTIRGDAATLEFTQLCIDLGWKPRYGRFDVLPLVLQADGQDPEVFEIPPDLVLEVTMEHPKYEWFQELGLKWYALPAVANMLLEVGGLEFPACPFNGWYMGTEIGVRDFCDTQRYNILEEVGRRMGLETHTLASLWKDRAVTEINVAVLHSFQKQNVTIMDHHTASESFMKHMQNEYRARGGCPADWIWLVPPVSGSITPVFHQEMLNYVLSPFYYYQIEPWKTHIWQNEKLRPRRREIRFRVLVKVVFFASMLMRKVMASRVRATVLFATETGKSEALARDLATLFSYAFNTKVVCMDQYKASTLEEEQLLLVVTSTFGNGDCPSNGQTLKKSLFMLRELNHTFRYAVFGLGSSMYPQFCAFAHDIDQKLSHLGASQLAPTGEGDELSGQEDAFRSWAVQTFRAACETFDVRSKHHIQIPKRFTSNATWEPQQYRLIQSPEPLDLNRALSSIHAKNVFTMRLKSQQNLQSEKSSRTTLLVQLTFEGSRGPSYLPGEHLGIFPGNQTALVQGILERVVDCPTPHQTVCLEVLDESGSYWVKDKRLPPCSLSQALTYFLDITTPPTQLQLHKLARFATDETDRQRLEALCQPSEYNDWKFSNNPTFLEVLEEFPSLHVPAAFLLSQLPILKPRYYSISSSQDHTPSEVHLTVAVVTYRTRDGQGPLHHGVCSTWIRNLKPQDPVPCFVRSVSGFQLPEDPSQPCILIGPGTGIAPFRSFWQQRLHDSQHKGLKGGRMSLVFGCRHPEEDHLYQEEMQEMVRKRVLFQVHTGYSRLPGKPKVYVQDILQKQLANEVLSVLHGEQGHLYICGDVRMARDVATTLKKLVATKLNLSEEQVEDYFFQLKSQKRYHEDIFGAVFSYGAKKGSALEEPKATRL
# ASSAY_EXPLANATION: Macrophage assay (iNOS), macrophages depleted of tetrahydrobiopterin by DAHP
# Type: cell-based
# REPORTED_CONDITIONS: 72 h; tested at 1 microM in macrophages; P = promotes NOS activity; read-out: iNOS effect *H155
I'd appreciate it if you could supply activation at 1 µM values for the items below.

Recorded activation at 1 µM of Cc1nc2nc(N)[nH]c(=O)c2nc1C , please.
20 to 50%

Recorded activation at 1 µM of CCC1(CC)Nc2nc(N)[nH]c(=O)c2N=C1CO , please.
< 20%

Recorded activation at 1 µM of CC1=Nc2c(nc(N)[nH]c2=O)NC1C (stereo not shown) , please.
20 to 50%

Recorded activation at 1 µM of CC1(C)Nc2nc(N)[nH]c(=O)c2N=C1/C=C/c1ccc(Cl)cc1 , please.
> 50%

Recorded activation at 1 µM of Nc1nc2ncc(C(=O)O)nc2c(=O)[nH]1 , please.
20 to 50%

Recorded activation at 1 µM of CC1(C)Nc2nc(N)[nH]c(=O)c2N=C1CO , please.
20 to 50%

Recorded activation at 1 µM of CCC1=Nc2c(nc(N)[nH]c2=O)NC1(C)C , please.
20 to 50%

Recorded activation at 1 µM of CC1(C)Nc2nc(N)[nH]c(=O)c2N=C1Cc1ccccc1 , please.
20 to 50%

Recorded activation at 1 µM of CC12CCCC1(S(=O)(=O)O)Nc1c(nc(N)[nH]c1=O)N2 (stereo not shown) , please.
20 to 50%

Recorded activation at 1 µM of CC1(CCc2ccccc2)Nc2nc(N)[nH]c(=O)c2N=C1CO (stereo not shown) , please.
20 to 50%

Recorded activation at 1 µM of CC12CCCCC1=Nc1c(nc(N)[nH]c1=O)N2 (stereo not shown) , please.
20 to 50%

Recorded activation at 1 µM of CC(=O)C1=Nc2c(nc(N)[nH]c2=O)NC1(C)C , please.
20 to 50%

Recorded activation at 1 µM of CC1(CCc2ccccc2)Nc2nc(N)[nH]c(=O)c2N=C1C=O (stereo not shown) , please.
< 20%

Recorded activation at 1 µM of Nc1nc2ncc(C=O)nc2c(=O)[nH]1 , please.
20 to 50%

Recorded activation at 1 µM of CC1Nc2nc(N)[nH]c(=O)c2NC1C (stereo not shown) , please.
20 to 50%

Recorded activation at 1 µM of CC1=Nc2c(nc(N)[nH]c2=O)OC1(C)C , please.
< 20%
